This listing pairs compounds with measured TGI.
Tested on: UACC-62 melanoma
protocol details: NCI tumour cell line growth inhibition, 48 h
observable: TGI

>>> reported_measurement("CN(C)CCCNC(=O)c1cc(NC(=O)c2cc(NC(=O)c3cc(NC(=O)CCc4c[nH]c5ccccc45)cn3C)cn2C)cn1C")
"> 100 µM"
>>> reported_measurement("O=C(Cc1ccccc1)c1ccc2[nH]c(=O)oc2c1")
"> 100 µM"
>>> reported_measurement("CC1(C)OCC(CO)(Nc2nc(N3CC3)nc(N3CC3)n2)CO1")
"14 µM"
>>> reported_measurement("CC(=O)Nc1ccc(C2[C@H]3C(=O)N(c4ccc(Cc5ccc(N6C(=O)[C@@H]7ON(c8ccccc8)C(c8ccc(NC(C)=O)cc8)[C@@H]7C6=O)cc5)cc4)C(=O)[C@H]3ON2c2ccccc2)cc1 (stereo partly drawn)")
"> 100 µM"
>>> reported_measurement("CC(C)(O)C1OCC(C2CCC3(C)C4=CCC5C(C)(C)C(O)CCC5(C)C4CCC23C)CC1O (stereo not drawn)")
"29.5 µM"
>>> reported_measurement("OCCCCC#Cc1ccccc1C#Cc1ccccc1C(F)(F)F")
"23.5 µM"
>>> reported_measurement("C=C1C(=O)C23CC1C[C@H](OC(C)=O)C2C1(C)C(OC(C)=O)C[C@H](O)C(C)(C)[C@H]1C(O)[C@@H]3OC(C)=O (stereo partly drawn)")
"26.5 µM"
>>> reported_measurement("S=C(Nc1ccc(Cl)cc1)Nc1ccc(-c2nc3ccccc3[nH]2)cc1")
"14.8 µM"

----------
This listing pairs molecules with measured TGI.
Test system: NCI-H226 lung
protocol details: NCI tumour cell line growth inhibition, 48 h
observable: TGI (µM)

>>> reported_measurement("O=C1c2ccccc2-c2c1c1ccccc1c(=O)n2CCNCCNCCn1c2c(c3ccccc3c1=O)C(=O)c1ccccc1-2")
18.9
>>> reported_measurement("Cc1nc2cccc(NCc3ccc(C(=O)NO)cc3)c2c(=O)n1-c1ccccc1")
6.08
>>> reported_measurement("O=[N+]([O-])C1C2C=CC(C2)[C@H]1c1ccccc1Cl (stereo partly specified)")
92.2
>>> reported_measurement("COc1cc2c(/C=C3/C(=O)Nc4ccccc43)c(Cl)n(Cc3ccccc3[N+](=O)[O-])c2cc1C")
38.4
>>> reported_measurement("COC(=O)c1c(C(=O)OC)c2cc(C(=O)c3ccccc3)ccn2c1Cl")
64.7
>>> reported_measurement("CCCCCCCCCCCCCCCCP(=O)(O)OP(=O)(O)OCC1OC(n2cnc3c(N)ncnc32)C(O)C1O (stereo unspecified)")
39.6
>>> reported_measurement("S=C(N/N=C/c1ccccn1)Nc1ccccn1")
11.8
>>> reported_measurement("CCN(CC)CCS(=O)c1c2cc(OC)ccc2nc2ccc(OC)cc12 (stereo unspecified)")
39.5
>>> reported_measurement("CN(C)CCNc1ccc2c(=O)n(CCN(C)C)c(=O)n3c4ccc(N)cc4c(=O)c1c23")
0.573
>>> reported_measurement("CCC(=O)COc1ccc(NC(NC(=O)C(C(F)(F)F)C(F)(F)F)(C(F)(F)F)C(F)(F)F)cc1")
47.6
>>> reported_measurement("S=C(Nc1ccc(Cl)cc1)Nc1ccc(Cl)cc1 (tested in a mixture with another compound)")
7.76
>>> reported_measurement("C/C=C(/C)C(=O)O[C@H]1C(C)=C[C@]23C(=O)[C@@H](C=C(COC(C)=O)[C@@H](O)[C@]12O)[C@H]1[C@@H](C[C@H]3C)[C@@]1(C)OC(=O)/C(C)=C\\C")
7.52
>>> reported_measurement("O=C(Nc1ncc(Cc2ccccc2Cl)s1)c1ccc2c(c1)OCCO2")
8.45
>>> reported_measurement("O=C(Nc1ccc(Cl)cc1)c1cc2ccccc2cc1O")
82.2
>>> reported_measurement("Cc1cc2c(F)c(Oc3ncnn4cc(OC[C@@H](C)OC(=O)[C@H](C)N)c(C)c34)ccc2[nH]1")
24.8
>>> reported_measurement("O=C1c2ccccc2-c2c1c1ccccc1c(=O)n2CCCN1CCOCC1")
84.5
>>> reported_measurement("O=C(Oc1ccc(CCl)cc1)c1ccccc1")
0.437
>>> reported_measurement("COc1cc(-c2coc3c(OC)c(OC4OC(CO)C(O)C(O)C4O)c(OC)cc3c2=O)cc(OC)c1C (stereo unspecified)")
68.1

----------
Tested on: SF-295 CNS
protocol details: NCI tumour cell line growth inhibition, 48 h
This listing pairs molecules with measured GI50.
observable: GI50

>>> reported_measurement("N=C(N)CCCCCCCCC(=N)N")
"23.5 µM"
>>> reported_measurement("O=C(Nc1ncc(Cc2ccccc2Cl)s1)c1ccc2c(c1)OCCO2")
"0.346 µM"
>>> reported_measurement("O=C1C=Cc2ccccc2/C1=C/c1[nH]c(=O)[nH]c1O")
"3.1 µM"
>>> reported_measurement("COc1ccc(-c2nc(-c3cn(C)c4ncccc34)cs2)cc1")
"20.3 µM"
>>> reported_measurement("CCSc1nc(N=Cc2cccs2)c2cn[nH]c2n1")
"19.1 µM"
>>> reported_measurement("Cc1ccc2c(N)c(C(=O)N[C@H]3CCc4cc(N5CC6CCC(C5)N6)ccc4C3)sc2n1")
"0.509 µM"

----------
Test system: OVCAR-5 ovarian
protocol details: NCI tumour cell line growth inhibition, 48 h
This listing pairs compounds with measured TGI.
observable: TGI (µM)

>>> reported_measurement("CC(=O)OC(C)(C)/C=C/C(=O)[C@](C)(O)[C@H]1[C@H](O)C[C@@]2(C)[C@@H]3CC=C4[C@@H](C[C@H](O)C(=O)C4(C)C)[C@]3(C)C(=O)C[C@]12C")
13.8
>>> reported_measurement("CC(NNC(=S)N1CCCCCC1)c1ccc2ccccc2n1 (centres undefined)")
38.5
>>> reported_measurement("CCCCCCCCCCCCCCCCP(=O)(O)OP(=O)(O)OCC1OC(n2cnc3c(N)ncnc32)C(O)C1O (centres undefined)")
29.2
>>> reported_measurement("Cc1cc2c(F)c(Oc3ncnn4cc(OC[C@@H](C)OC(=O)[C@H](C)N)c(C)c34)ccc2[nH]1")
29.2
>>> reported_measurement("CC1(C)OCC(CO)(Nc2nc(N3CC3)nc(N3CC3)n2)CO1")
50.3

----------
Test system: HOP-92 NSCLC
protocol details: NCI tumour cell line growth inhibition, 48 h
observable: TGI

>>> reported_measurement("CCN(CC)CCS(=O)c1c2cc(OC)ccc2nc2ccc(OC)cc12 (stereo not given)")
"> 24.3 µM"
>>> reported_measurement("COc1ccc(-c2nc(-c3cn(C)c4ncccc34)cs2)cc1")
"55.9 µM"
>>> reported_measurement("C=C1C(=O)OC2CC3(CO3)C3C(O)C(O)CC3(C)CC12 (stereo not given)")
"50.7 µM"
>>> reported_measurement("CC(C)CC1c2[nH]c3ccccc3c2C[C@H]2C(=O)NC(CCC(=O)OC(C)(C)C)C(=O)N12 (stereo not given in full)")
"78.1 µM"
>>> reported_measurement("C=C1CC[C@@H]2C(C)(C)CCC[C@@]2(C)[C@@H]1Cc1cc(O)ccc1O")
"10.6 µM"

----------
Tested on: HS 578T breast
protocol details: NCI tumour cell line growth inhibition, 48 h
observable: GI50

>>> reported_measurement("O=C1CCC2(C=C(Br)C(=O)C(Br)=C2)O1")
"20.4 µM"
>>> reported_measurement("OCCCCC#Cc1ccccc1C#Cc1ccccc1C(F)(F)F")
"11.8 µM"
>>> reported_measurement("C[C@]12CC[C@@H]3c4ccc(O)cc4CC[C@H]3[C@@H]1CC[C@@H]2NS(=O)(=O)Cc1ccc(Cl)cc1")
"2.4 µM"
>>> reported_measurement("CN(C)CCCNC(=O)c1cc(NC(=O)c2cc(NC(=O)c3cc(NC(=O)CCc4c[nH]c5ccccc45)cn3C)cn2C)cn1C")
"0.0701 µM"
>>> reported_measurement("Cc1cc2c(F)c(Oc3ncnn4cc(OC[C@@H](C)OC(=O)[C@H](C)N)c(C)c34)ccc2[nH]1")
"9.36 µM"
>>> reported_measurement("Fc1ccc(-c2ccc(-c3nnc(-c4cc(F)c(Cl)cc4Cl)o3)o2)cc1Cl")
"22.3 µM"
>>> reported_measurement("O=C(Nc1ccc(Cl)cc1)c1cc2ccccc2cc1O")
"2.68 µM"
>>> reported_measurement("Cc1nc2cccc(NCc3ccc(C(=O)NO)cc3)c2c(=O)n1-c1ccccc1")
"3.04 µM"
>>> reported_measurement("CCN(CC)CCCCCCCNc1c2ccc(Cl)cc2nc2ccc(OC)cc12")
"1.79 µM"
>>> reported_measurement("Cc1cc(S(=O)(=O)Nc2nnc(-c3ccccc3)c(-c3ccccc3)n2)c(SCc2ccccc2)cc1Cl")
"19.1 µM"

----------
This listing pairs compounds with measured TGI.
Test system: OVCAR-5 ovarian
protocol details: NCI tumour cell line growth inhibition, 48 h
observable: TGI

>>> reported_measurement("COC(=O)C1=C(O)C(O)=C(C(=O)OC)C1")
"> 100 µM"
>>> reported_measurement("CC(C(=O)Oc1ccc2ccccc2c1-c1c(O)ccc2ccccc12)c1ccccc1 (stereo unspecified)")
"31 µM"
>>> reported_measurement("Cc1cc(Cl)ccc1N=NC(=O)NNc1ccc(Cl)cc1C")
"30.7 µM"
>>> reported_measurement("O=C(O)c1cc2c(cn1)[nH]c1ccccc12")
"> 100 µM"
>>> reported_measurement("C[N+]1(C)CCC(C#N)(c2ccccc2)CC1")
"> 100 µM"
>>> reported_measurement("CCC(=O)COc1ccc(NC(NC(=O)C(C(F)(F)F)C(F)(F)F)(C(F)(F)F)C(F)(F)F)cc1")
"> 100 µM"
